EXPERIMENT_NOTES: NCI Yeast Anticancer Drug Screen. Data for the cln2 rad14 strain (AID 165);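 further: 0% = growth equal to vehicle treated cultures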
TEST_PARAMETERS: S. cerevisiae cln2 rad14 strain, at 50.0 µM, active compounds read high
Compounds without any hit were thinned out: in the full panel of roughly 79,000, 15% have a hit.
# label = criterion met if growth inhibition >= -10% else criterion not met

Solved entries:
O=C(CCCCl)c1ccccc1 :: criterion met
NC(N)=NCCCC(O)C(=O)O (configuration not stated) :: criterion met
NC(=O)C[n+]1cccc(C(=O)Nc2ccc(Cl)cc2)c1 :: criterion not met
COc1ccc(OC)c(CC(N)=O)c1 :: criterion not met

Evaluate C=CCC1CCC/C1=N\O (configuration not stated) : growth inhibition at minimum -10%?
criterion not met

Evaluate `CCOc1ccc(/C=C2/C(=O)N(/C=C3/C(=O)Oc4ccccc4C3=O)C(=NC(C)=O)N2C)cc1` : growth inhibition at minimum -10%?
criterion met

Evaluate `Nc1ccc2c(c1)Cc1c-2cc(Br)c(N)c1Br` : growth inhibition at minimum -10%?
criterion not met

====

EXPERIMENT_NOTES: NCI Yeast Anticancer Drug Screen. Data for the mlh1 rad18 strain (AID 175)
TEST_PARAMETERS: S. cerevisiae mlh1 rad18 strain growth inhibition; at 50.0 µM; active compounds read high
This is part of a sample that, as a whole, favours compounds with a hit. Of some 79,000 tested, about 15% had one in any assay.
READOUT_TYPE: growth inhibition (%)
Numeric only. Scale: %

NC1=NN(c2c(Cl)cc(Cl)cc2Cl)C(=O)C1 :: 39.6

Item COc1cc2c(cc1OC)C(NC(C)C)CCCC2 (stereo not drawn) : provide growth inhibition
-6.9

====

EXPERIMENT_NOTES: NCI Yeast Anticancer Drug Screen. Data for the cln2 rad14 strain (AID 165);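 further: 0% = growth equal to vehicle treated cultures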
TEST_PARAMETERS: S. cerevisiae cln2 rad14 strain, at 50.0 µM, active compounds read high
Compounds without any hit were thinned out: in the full panel of roughly 79,000, 15% have a hit.
Entries and their growth inhibition
Numeric only. Scale: %

// worked examples, growth inhibition included
CN1C(=O)C=C(C=Nc2ccc(-c3ccccc3)cc2)C2CCCCC21 (centres undefined) :: 6.55
CSc1nc(NC2OC(CO)C(O)C(O)C2O)c(C=O)c(=O)n1C (centres undefined) :: 4
CCC(O)C(C)C(O)CC (centres undefined) :: 13.3

Item CCCCCCCCCCCC(=O)N(CCCCCCCCCCC(=O)O)CC(O)C(O)C(OC1OC(CO)C(O)C(O)C1O)C(O)CO (centres undefined) : provide growth inhibition
32.2

Item `COc1cc([N+](=O)[O-])c2ncccc2c1` : provide growth inhibition
6.9

Item CC1(c2ccc(Cl)s2)NC(=O)NC1=O (centres undefined) : provide growth inhibition
-45.8

====

EXPERIMENT_NOTES: NCI Yeast Anticancer Drug Screen. Data for the cln2 rad14 strain (AID 165);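 further: 0% = growth equal to vehicle treated cultures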
TEST_PARAMETERS: S. cerevisiae cln2 rad14 strain, at 50.0 µM
This is part of a sample that, as a whole, favours compounds with a hit. Of some 79,000 tested, about 15% had one in any assay. The source made the active and inactive calls. No stated cut-off is given here; in the data, active means growth inhibition above about 70%; inactive means the rest.
Hi there, use one of these labels in your reply, thanks! 1 (yes) = active, 0 (no) = inactive

Solved entries:
Cc1cc(C)c(NC(=O)C(Br)C(Br)c2ccccc2)c(C)c1 (stereo unspecified) :: 0 (no)
O=C(CCC(=O)Nc1ccccc1[N+](=O)[O-])CC(=O)c1ccc(Br)cc1 :: 0 (no)

Look up the recorded call for `Clc1ccc(OCc2nnc3n2N=C(c2ccccc2)CS3)cc1` in this test.
0 (no)

Look up the recorded call for `C/C=N\n1c(C)c(C#N)c(C#N)c1N` in this test.
0 (no)

Look up the recorded call for `CCC(C)(C1CCC(=O)CC1)C1CCC(=O)CC1` in this test.
0 (no)

Look up the recorded call for CC1(c2cccs2)C(=O)NC(=O)N1C(=O)CCl (stereo unspecified) in this test.
0 (no)

Look up the recorded call for O=C1OC(=O)c2ccc(SCC(O)CCl)c3cccc1c23 (stereo unspecified) in this test.
1 (yes)

Look up the recorded call for C=CC1C(C(=O)Nc2ccccc2)CN1C (stereo unspecified) in this test.
0 (no)

Look up the recorded call for `Cc1cc(OCc2nnc3n2S(=O)(=O)c2ccccc2N3C)ccc1Cl` in this test.
0 (no)

Look up the recorded call for `N/C(=N\N=C\c1ccccn1)NO` in this test.
0 (no)

Look up the recorded call for `C=CC(C)(C)C1=CC(=O)C(OC)=CC1=O` in this test.
0 (no)

Look up the recorded call for `NCC(=O)c1cc2ccccc2[n+]([O-])c1` in this test.
0 (no)

Look up the recorded call for `Cc1cc(N(CCC#N)CCC#N)ccc1C=Nc1ccc(C(=O)NN2C(=O)/C(=C/c3ccc(N(CCC#N)CCC#N)cc3)N=C2c2cc([N+](=O)[O-])ccc2Cl)cc1` in this test.
0 (no)

Look up the recorded call for `COC1=CC(=O)C(C(C)=O)=C(O)C1=O` in this test.
0 (no)

Look up the recorded call for `CCOC(=S)SC(=S)SC(=S)OCC` in this test.
0 (no)

Look up the recorded call for CSc1nc(Br)nc2c1ncn2C1CC(Oc2ccc(C)cc2)C(COc2ccc(C)cc2)O1 (stereo unspecified) in this test.
0 (no)

Look up the recorded call for CC1CN(c2ccc(Cl)cc2)CC(C)OC(=O)O1 (stereo unspecified) in this test.
0 (no)

Look up the recorded call for `Cc1cc(C)nc(NS(=O)(=O)c2ccc(NC(=O)c3ccc(Cl)c4c(Nc5ccc(S(=O)(=O)Nc6nc(C)cc(C)n6)cc5)c5ccccc5nc34)cc2)n1` in this test.
0 (no)

Look up the recorded call for CSC(C(OC(C)=O)C(OC(C)=O)C(OC(C)=O)C(COC(C)=O)OC(C)=O)n1cnc2c(=S)nc[nH]c21 (stereo unspecified) in this test.
0 (no)

Look up the recorded call for `O=[N+]([O-])c1nccn1CCCl` in this test.
0 (no)

Look up the recorded call for `CO[C@H]1CC[C@@]2(C)C(=CC[C@H]3[C@@H]4CC[C@H]([C@H](C)CCCC(C)C)[C@@]4(C)CC[C@@H]32)C1` in this test.
0 (no)

Look up the recorded call for `COc1ccc2[nH]c(=O)c(CO)c(CO)c2c1` in this test.
0 (no)

Look up the recorded call for `N#CC(C#N)=C(O)/C(=C/c1ccc(Cl)cc1Cl)NC(=O)c1ccccc1` in this test.
0 (no)

Look up the recorded call for `CCCCCCCCCCCCCC(=O)Oc1ccc([N+](=O)[O-])cc1` in this test.
0 (no)

Look up the recorded call for `COC(=O)c1cc2ccccc2c2c3c(ccc12)OCO3` in this test.
0 (no)

Look up the recorded call for `CC(C)OC(=O)Nc1ccc(F)c(F)c1` in this test.
0 (no)
